biological target: Rho-associated protein kinase 2 (Homo sapiens); experiment: In Vitro Assay: The effectiveness of compounds of the present invention as ROCK inhibitors can be determined in a 30 μL assay containing 20 mM HEPES, pH 7.5, 20 mM MgCl2, 0.015% Brij-35, 4 mM DTT, 5 μM ATP and 1.5 μM peptide substrate (FITC-AHA-[…]-OH). Compounds were dissolved in DMSO so that the final concentration of DMSO was <2%, and the reaction was initiated with Rho kinase variants. After incubation, the reaction was terminated by the addition of EDTA and the phosphorylated and non-phosphorylated peptides separated using a LABCHIP® 3000 Reader (Caliper Life Sciences). […] Compounds were tested in dose-response format, and the inhibition of kinase activity was calculated at each concentration of compound. The inhibition data were fit using a curve-fitting program to determine the IC50; i.e., the concentration of compound required to inhibit 50% of kinase activity.
Sequence (O75116 whole entry, looked up, change not shown): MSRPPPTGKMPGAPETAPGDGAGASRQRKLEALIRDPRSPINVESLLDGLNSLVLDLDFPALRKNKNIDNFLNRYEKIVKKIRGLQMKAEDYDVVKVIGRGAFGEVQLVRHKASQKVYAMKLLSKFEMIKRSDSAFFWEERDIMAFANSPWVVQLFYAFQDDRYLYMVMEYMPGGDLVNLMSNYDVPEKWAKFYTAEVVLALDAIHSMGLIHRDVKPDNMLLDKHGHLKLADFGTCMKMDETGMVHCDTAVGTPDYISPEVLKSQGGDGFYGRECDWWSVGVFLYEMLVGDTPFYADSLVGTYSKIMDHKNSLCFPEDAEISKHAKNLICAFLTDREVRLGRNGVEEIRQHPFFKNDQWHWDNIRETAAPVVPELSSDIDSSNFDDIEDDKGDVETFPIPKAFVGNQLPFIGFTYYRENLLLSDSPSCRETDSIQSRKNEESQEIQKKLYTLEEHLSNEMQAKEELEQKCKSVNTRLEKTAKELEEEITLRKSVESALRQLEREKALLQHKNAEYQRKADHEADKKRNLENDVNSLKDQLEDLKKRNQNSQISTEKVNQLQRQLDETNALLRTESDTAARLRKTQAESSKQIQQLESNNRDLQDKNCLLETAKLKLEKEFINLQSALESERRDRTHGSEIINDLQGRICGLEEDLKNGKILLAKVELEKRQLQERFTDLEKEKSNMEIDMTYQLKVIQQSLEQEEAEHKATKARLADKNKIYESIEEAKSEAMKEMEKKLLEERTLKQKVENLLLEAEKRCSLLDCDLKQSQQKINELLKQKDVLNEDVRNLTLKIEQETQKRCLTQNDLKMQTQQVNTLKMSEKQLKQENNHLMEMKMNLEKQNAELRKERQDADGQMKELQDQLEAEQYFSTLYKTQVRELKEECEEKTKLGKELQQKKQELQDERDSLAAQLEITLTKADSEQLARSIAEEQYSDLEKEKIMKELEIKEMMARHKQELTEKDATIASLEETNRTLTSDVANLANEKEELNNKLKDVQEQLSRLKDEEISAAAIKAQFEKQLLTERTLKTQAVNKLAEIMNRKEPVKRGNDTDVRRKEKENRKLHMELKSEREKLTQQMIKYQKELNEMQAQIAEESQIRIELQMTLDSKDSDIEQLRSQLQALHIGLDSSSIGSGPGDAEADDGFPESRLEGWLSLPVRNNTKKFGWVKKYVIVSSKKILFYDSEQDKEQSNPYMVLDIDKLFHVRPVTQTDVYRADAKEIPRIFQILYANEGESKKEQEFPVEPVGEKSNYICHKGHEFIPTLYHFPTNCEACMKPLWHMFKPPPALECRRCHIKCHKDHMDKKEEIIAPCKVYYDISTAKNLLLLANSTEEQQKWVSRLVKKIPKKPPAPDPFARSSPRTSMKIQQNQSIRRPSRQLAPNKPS
Hi there, I'd appreciate the recorded IC50 for every entry that follows.

Below, 3 molecules whose answers are already recorded.
| SMILES | DATA_VALUE |
| --- | --- |
| O=C(Cc1ccc(-c2c[nH]c(=O)c3ccccc23)c(F)c1)N1Cc2ccccc2C1 | < 0.1 µM |
| O=C(Nc1ccc(-c2n[nH]c(=O)c3ccccc23)cc1)c1cnn(C2CCCC2)c1 | < 0.1 µM |
| O=C(Nc1ccc(-c2n[nH]c(=O)c3ccccc23)cc1)c1nn(CC2CCNCC2)c2ccccc12 | < 0.1 µM |

[Q] Return reported IC50; argument: O=C(Nc1ccc(-c2n[nH]c(=O)c3ccccc23)cc1)c1c[nH]c2ncc(F)cc12
[A] < 0.1 µM
